Tested on: 945468-187-T-J2-PDC spheroids viability;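 also: spheroids exposed to compounds for seven days before reading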
Assay: Anticancer human tumor 945468-187-T-J2-PDC patient-derived rectal carcinoma cell line growth inhibition [PI3K]
Conditions: second compound 10 µM; first compound 0.316 µM; stronger effect = lower value; spheroids with HUVEC and MSC
Source text: Combinatorial screen of targeted agents with the PI3K inhibitors inavolisib, alpelisib, duvelisib, and copanlisib in multi-cell type tumor spheroids A high-throughput screen of multi-cell type tumor spheroids was designed to identify active combinations of targeted small molecules and PI3K pathway inhibitors. […] Compounds. […] If the clinical Cmax for an agent had not been determined, the highest concentration tested was 10 microM. […]
Please assign f whenever viability, T/C is at or above 80%, and t whenever it is below.

compound: CC(C)NCC(C(=O)N1CCN(c2ncnc3c2C(C)CC3O)CC1)c1ccc(Cl)cc1 (stereo unspecified) + CC(Nc1ncnc2nc[nH]c12)c1cc2cccc(Cl)c2c(=O)n1-c1ccccc1
cat: f
//
compound: C#Cc1c(F)ccc2cc(O)cc(-c3ncc4c(N5CC6CCC(C5)N6)nc(OCC56CCCN5CC(F)C6)nc4c3F)c12 (stereo unspecified) + Cc1nc(NC(=O)N2CCCC2C(N)=O)sc1-c1ccnc(C(C)(C)C(F)(F)F)c1
cat: f
//
compound: CC(C)NCC(C(=O)N1CCN(c2ncnc3c2C(C)CC3O)CC1)c1ccc(Cl)cc1 (stereo unspecified) + Cc1nc(NC(=O)N2CCCC2C(N)=O)sc1-c1ccnc(C(C)(C)C(F)(F)F)c1
cat: t
//
compound: CC(Cn1ccc(-c2ccc(C#N)c(Cl)c2)n1)NC(=O)c1cc(C(C)O)[nH]n1 (stereo unspecified) + Cc1nc(NC(=O)N2CCCC2C(N)=O)sc1-c1ccnc(C(C)(C)C(F)(F)F)c1
cat: t
//
compound: CC1(C)CCC(CN2CCN(c3ccc(C(=O)NS(=O)(=O)c4ccc(NCC5CCOCC5)c([N+](=O)[O-])c4)c(Oc4cnc5[nH]ccc5c4)c3)CC2)=C(c2ccc(Cl)cc2)C1 + CC(Nc1ncnc2nc[nH]c12)c1cc2cccc(Cl)c2c(=O)n1-c1ccccc1
cat: f
//
compound: C[C@@H](NC(=O)c1ncnc(N)c1Cl)c1ncc(C(=O)Nc2cc(C(F)(F)F)c(Cl)cn2)s1 + Cc1nc(NC(=O)N2CCCC2C(N)=O)sc1-c1ccnc(C(C)(C)C(F)(F)F)c1
cat: f
//
compound: CNC(=O)c1ccc(N2C(=S)N(c3ccc(C#N)c(C(F)(F)F)c3)C(=O)C2(C)C)cc1F + CC(Nc1ncnc2nc[nH]c12)c1cc2cccc(Cl)c2c(=O)n1-c1ccccc1
cat: f
//
compound: CCCS(=O)(=O)Nc1ccc(F)c(C(=O)c2c[nH]c3ncc(-c4ccc(Cl)cc4)cc23)c1F + CC(Nc1ncnc2nc[nH]c12)c1cc2cccc(Cl)c2c(=O)n1-c1ccccc1
cat: f
//
compound: CCN1CCN(Cc2ccc(Nc3ncc(F)c(-c4cc(F)c5nc(C)n(C(C)C)c5c4)n3)nc2)CC1 + Cc1nc(NC(=O)N2CCCC2C(N)=O)sc1-c1ccnc(C(C)(C)C(F)(F)F)c1
cat: t
//
compound: CC1(C)CCC(CN2CCN(c3ccc(C(=O)NS(=O)(=O)c4ccc(NCC5CCOCC5)c([N+](=O)[O-])c4)c(Oc4cnc5[nH]ccc5c4)c3)CC2)=C(c2ccc(Cl)cc2)C1 + Cc1nc(NC(=O)N2CCCC2C(N)=O)sc1-c1ccnc(C(C)(C)C(F)(F)F)c1
cat: t
//
compound: Cn1ncc(Cl)c1-c1cc(C(=O)NC(CN)Cc2cccc(F)c2)sc1Cl (stereo unspecified) + CC(Nc1ncnc2nc[nH]c12)c1cc2cccc(Cl)c2c(=O)n1-c1ccccc1
cat: f
//
compound: C#Cc1c(F)ccc2cc(O)cc(-c3ncc4c(N5CC6CCC(C5)N6)nc(OCC56CCCN5CC(F)C6)nc4c3F)c12 (stereo unspecified) + CC(Nc1ncnc2nc[nH]c12)c1cc2cccc(Cl)c2c(=O)n1-c1ccccc1
cat: f
//
compound: CNC(=O)c1ccc(N2C(=S)N(c3ccc(C#N)c(C(F)(F)F)c3)C(=O)C2(C)C)cc1F + Cc1nc(NC(=O)N2CCCC2C(N)=O)sc1-c1ccnc(C(C)(C)C(F)(F)F)c1
cat: t
//
compound: C[C@@H](NC(=O)c1ncnc(N)c1Cl)c1ncc(C(=O)Nc2cc(C(F)(F)F)c(Cl)cn2)s1 + CC(Nc1ncnc2nc[nH]c12)c1cc2cccc(Cl)c2c(=O)n1-c1ccccc1
cat: f
//
compound: CC(Cn1ccc(-c2ccc(C#N)c(Cl)c2)n1)NC(=O)c1cc(C(C)O)[nH]n1 (stereo unspecified) + CC(Nc1ncnc2nc[nH]c12)c1cc2cccc(Cl)c2c(=O)n1-c1ccccc1
cat: f
//
compound: Cn1nccc1Nc1nccc(-c2ccn(C(CO)c3ccc(Cl)c(F)c3)c(=O)c2)n1 (stereo unspecified) + CC(Nc1ncnc2nc[nH]c12)c1cc2cccc(Cl)c2c(=O)n1-c1ccccc1
cat: f
//
compound: CC1(C)CCC(Nc2ncc(C(F)(F)F)c(-c3c[nH]c4c(P(C)(C)=O)c(C#N)ccc34)n2)CN1 (stereo unspecified) + Cc1nc(NC(=O)N2CCCC2C(N)=O)sc1-c1ccnc(C(C)(C)C(F)(F)F)c1
cat: t
//
compound: Cn1ncc(Cl)c1-c1cc(C(=O)NC(CN)Cc2cccc(F)c2)sc1Cl (stereo unspecified) + Cc1nc(NC(=O)N2CCCC2C(N)=O)sc1-c1ccnc(C(C)(C)C(F)(F)F)c1
cat: f
//
compound: CCN1CCN(Cc2ccc(Nc3ncc(F)c(-c4cc(F)c5nc(C)n(C(C)C)c5c4)n3)nc2)CC1 + CC(Nc1ncnc2nc[nH]c12)c1cc2cccc(Cl)c2c(=O)n1-c1ccccc1
cat: f
//
compound: Cn1nccc1Nc1nccc(-c2ccn(C(CO)c3ccc(Cl)c(F)c3)c(=O)c2)n1 (stereo unspecified) + Cc1nc(NC(=O)N2CCCC2C(N)=O)sc1-c1ccnc(C(C)(C)C(F)(F)F)c1
cat: t
